Taken from patent US20200283532A1.

Recorded A) Affinity: mean activity relative to biotinylated A20FMDV2 (100 nM) for the following substances
- target under test: αvβ6 integrin (A375Pβ6 cells) (Homo sapiens, UniProt P06756+P18564)
- Construct: expressed in transfected cells; host or cells: A375Pβ6 (transduced A375P melanoma cells; control line A375Ppuro)
- Sequence (P06756 31-889 limits assumed, stated change not applied): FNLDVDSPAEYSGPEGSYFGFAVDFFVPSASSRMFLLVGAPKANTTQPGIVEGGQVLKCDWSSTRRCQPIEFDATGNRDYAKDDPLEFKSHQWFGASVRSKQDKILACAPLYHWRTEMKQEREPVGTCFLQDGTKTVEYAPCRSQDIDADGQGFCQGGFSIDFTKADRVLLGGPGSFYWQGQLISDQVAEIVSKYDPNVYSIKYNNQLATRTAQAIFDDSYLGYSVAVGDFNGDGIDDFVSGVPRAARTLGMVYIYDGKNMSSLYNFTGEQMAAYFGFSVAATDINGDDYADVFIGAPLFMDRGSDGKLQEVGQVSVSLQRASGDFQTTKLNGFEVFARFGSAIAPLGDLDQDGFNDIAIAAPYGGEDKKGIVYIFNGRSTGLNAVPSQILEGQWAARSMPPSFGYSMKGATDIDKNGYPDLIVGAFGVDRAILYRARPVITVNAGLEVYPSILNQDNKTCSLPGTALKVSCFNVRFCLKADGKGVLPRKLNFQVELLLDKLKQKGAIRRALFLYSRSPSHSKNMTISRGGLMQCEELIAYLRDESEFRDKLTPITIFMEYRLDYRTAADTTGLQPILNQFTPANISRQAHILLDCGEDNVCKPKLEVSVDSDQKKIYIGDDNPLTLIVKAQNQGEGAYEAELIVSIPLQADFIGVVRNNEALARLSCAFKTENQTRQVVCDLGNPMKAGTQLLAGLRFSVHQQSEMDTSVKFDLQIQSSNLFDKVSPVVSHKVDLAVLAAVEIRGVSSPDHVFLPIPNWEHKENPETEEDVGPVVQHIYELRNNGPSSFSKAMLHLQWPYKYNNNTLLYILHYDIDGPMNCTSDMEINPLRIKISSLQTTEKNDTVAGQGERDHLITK
- Sequence (P06756 891-1048 limits assumed, stated change not applied): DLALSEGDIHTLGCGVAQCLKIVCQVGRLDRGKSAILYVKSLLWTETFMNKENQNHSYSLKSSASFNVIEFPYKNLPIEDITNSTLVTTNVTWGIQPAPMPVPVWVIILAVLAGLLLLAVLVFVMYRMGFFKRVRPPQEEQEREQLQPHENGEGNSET
- Sequence (P18564 22-788, stated change not applied): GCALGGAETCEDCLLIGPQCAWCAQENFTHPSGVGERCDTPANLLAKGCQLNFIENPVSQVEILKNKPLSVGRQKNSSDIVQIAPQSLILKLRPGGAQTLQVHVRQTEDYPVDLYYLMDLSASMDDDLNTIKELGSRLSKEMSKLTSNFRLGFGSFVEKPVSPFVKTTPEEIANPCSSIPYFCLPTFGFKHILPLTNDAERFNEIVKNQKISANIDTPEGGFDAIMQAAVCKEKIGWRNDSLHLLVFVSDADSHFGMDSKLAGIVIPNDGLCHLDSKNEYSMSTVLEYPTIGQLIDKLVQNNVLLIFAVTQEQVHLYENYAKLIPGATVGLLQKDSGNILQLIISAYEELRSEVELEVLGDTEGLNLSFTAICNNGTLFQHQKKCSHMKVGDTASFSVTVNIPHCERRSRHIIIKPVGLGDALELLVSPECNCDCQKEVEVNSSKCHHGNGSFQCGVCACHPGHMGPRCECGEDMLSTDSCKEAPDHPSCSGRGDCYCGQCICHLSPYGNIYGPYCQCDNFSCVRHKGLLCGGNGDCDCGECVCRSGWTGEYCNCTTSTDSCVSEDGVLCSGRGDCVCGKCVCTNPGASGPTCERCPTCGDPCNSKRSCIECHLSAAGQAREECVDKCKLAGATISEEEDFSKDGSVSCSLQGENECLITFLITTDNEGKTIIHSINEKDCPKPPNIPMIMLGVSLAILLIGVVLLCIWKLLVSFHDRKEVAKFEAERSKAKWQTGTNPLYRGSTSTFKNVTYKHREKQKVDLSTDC
- method summary: Level of binding of biotinylated peptides to A375Pβ6 cells by flow cytometry
- conditions: binding to A375Pβ6 at 100 nM, flow cytometry; commercial biotinylated A20FMDV2 = 1.00; mean of up to four experiments
API note: the answer field is a bare number with no unit suffix.

Consider the reported A) Affinity: mean activity relative to biotinylated A20FMDV2 (100 nM) for these substances:
1. H2N-NK(Biotin)VPNLRGDLQV[cyclohexylalanine]AQKVART-OH [Peptide 14]    0.62
2. H2N-NK(Biotin)VPNLRGDLQV[allylglycine]AQKVART-OH [Peptide 10]    0.58
3. H2N-NK(Biotin)VPNLRGDLQV[homoleucine]AQKVART-OH [Peptide 12]    0.45
4. H2N-NK(Biotin)VPNLRGDLQV[norleucine]AQKVART-OH [Peptide 9]    1.16
5. H2N-NK(Biotin)VPNLRGDLQVLAQ[ornithine]VART-OH [Peptide 3]    1.12
6. DTPA-GNK(Biotin)VPNLRGDLQVLAQKVART-OH [Peptide 23]    1.28
7. H2N-NK(Biotin)VPNLRGDLQV[aminoisobutyric acid]AQKVART-OH [Peptide 7]    1.07
8. H2N-NK (Biotin) VPNLRGDLQV[norvaline]AQKVART-OH [Peptide 8]    0.77

Moving on to the next substance.
Lab book: A) Affinity: mean activity relative to biotinylated A20FMDV2 (100 nM) of AcHN-NK(Biotin)VPNLRGDLQVLAQKVART-NH2 [Peptide 18] noted as 1.25
